measuredTarget: pERK1/2 (Thr202/Tyr204), NCI-1H358 (KRAS G12C) (Homo sapiens, UniProt P01116, G12C)
Construct: pERK1/2 HTRF read-out
Sequence (P01116 1-188 isoform P01116-2 G12C): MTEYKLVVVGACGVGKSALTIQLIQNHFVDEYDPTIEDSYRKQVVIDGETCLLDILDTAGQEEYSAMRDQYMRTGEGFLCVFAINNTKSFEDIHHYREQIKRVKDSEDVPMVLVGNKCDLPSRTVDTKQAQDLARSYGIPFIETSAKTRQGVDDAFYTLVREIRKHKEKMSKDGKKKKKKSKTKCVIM
procedureText: Assay of intracellular pERK1/2 (Thr202/Tyr204) phosphorylation in NCI-H358 cells (KRAS G12C)
Type: cell-based
runParameters: pERK1/2, 2 days, read-out: NCI-H358 (KRAS G12C) IC50

molecule: CC(c1cccnc1N)N1CCOc2nc(-c3cc(O)cc(Cl)c3C3CC3)c(F)c3nc(OC[C@@]45CCCN4C[C@H](F)C5)nc1c23 (single isomer, unassigned) [Compound 43]
IC50: > 1000 nM

molecule: Cc1c(F)c(N)cc(-c2nc3c4c(nc(OC[C@@]56CCCN5C[C@@]5(CC5(F)F)C6)nc4c2F)N(C(C)c2cccnc2N)CCO3)c1C(F)(F)F (single isomer, unassigned; diastereomer 1)
IC50: 0.2 nM

molecule: CC(c1cccnc1N)N1c2nc(OC[C@@]34CCCN3C[C@H](F)C4)nc3c(F)c(-c4cc(=O)[nH]c5ccccc45)nc(c23)OC[C@@H]1C (stereo partly shown)
IC50: > 100 nM

molecule: CC(c1cccnc1N)N1c2nc(OC[C@@]34CCCN3C[C@H](F)C4)nc3c(F)c(-n4nc(N)c5ccccc54)nc(c23)OC[C@@H]1C (stereo partly shown)
IC50: > 100 nM

---

measuredTarget: pERK1/2 (Thr202/Tyr204), PANC-1 (KRAS G121D) (Homo sapiens, UniProt P01116, G12D)
Construct: pERK1/2 HTRF read-out
Sequence (P01116 1-188 isoform P01116-2 G12D): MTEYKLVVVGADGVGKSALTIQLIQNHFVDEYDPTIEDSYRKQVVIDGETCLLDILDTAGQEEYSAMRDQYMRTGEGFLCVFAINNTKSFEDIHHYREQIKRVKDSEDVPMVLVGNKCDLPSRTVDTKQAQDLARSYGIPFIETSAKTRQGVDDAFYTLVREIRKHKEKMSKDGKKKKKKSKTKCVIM
procedureText: Assay of intracellular pERK1/2 (Thr202/Tyr204) phosphorylation in PANC-1 cells (KRAS G12D)
Type: cell-based
runParameters: pERK1/2, 2 days, read-out: PANC-1 (KRAS G12D) IC50
pIC50: −log10 of the molar value.

compound: [2H]C([2H])(Oc1nc2c3c(nc(-c4cc(N)c(F)cc4C(F)(F)F)c(F)c3n1)OCCN2C(C)c1cccnc1N)[C@@H]1C[C@@H](F)CN1C([2H])([2H])[2H] (stereo partly drawn)
pIC50: < 7.00

compound: Cc1cc(N)cc(-c2nc3c4c(nc(OCC5CCOCC5)nc4c2F)N([C@@H](C)c2cccnc2N)CCO3)c1C(F)(F)F (single isomer, unassigned)
pIC50: < 7.00

compound: CC(c1cccnc1N)N1c2nc(OC[C@@]34CCCN3C[C@H](F)C4)nc3c(F)c(-c4c(C(F)(F)F)ccc5ncccc45)nc(c23)OC[C@@H]1C (stereo partly drawn)
pIC50: < 7.00

---

measuredTarget: pERK1/2 (Thr202/Tyr204), NCI-1H358 (KRAS G12C) (Homo sapiens, UniProt P01116, G12C)
Construct: pERK1/2 HTRF read-out
procedureText: Assay of intracellular pERK1/2 (Thr202/Tyr204) phosphorylation in NCI-H358 cells (KRAS G12C)
Format: cell-based
runParameters: pERK1/2, 2 days, read-out: NCI-H358 (KRAS G12C) IC50

compound: CC(c1cccnc1N)N1CCOc2nc(-c3cc(O)cc(F)c3C3CC3)c(F)c3nc(OC[C@@H]4CCN4CC(F)F)nc1c23 (single isomer, unassigned) [Compound 23]
measuredTarget: pERK1/2 (Thr202/Tyr204), NCI-1H358 (KRAS G12C) (Homo sapiens, UniProt P01116, G12C)
readingQualifier: >
IC50 (nM): 1000
//
compound: Cc1c(F)c(N)cc(-c2nc3c4c(nc(OC[C@@]56CCCN5C[C@H](F)C6)nc4c2F)N(C2CCNC2)CCO3)c1C(F)(F)F (stereo partly drawn) [Compound 198]
measuredTarget: pERK1/2 (Thr202/Tyr204), NCI-1H358 (KRAS G12C) (Homo sapiens, UniProt P01116, G12C)
readingQualifier: >
IC50 (nM): 100
//
compound: CC(c1cccnc1N)N1CCOc2nc(-c3cc(O)cc(Cl)c3C3CC3)c(F)c3nc(OC[C@@H]4CCN4CC(F)F)nc1c23 (single isomer, unassigned) [Compound 21]
measuredTarget: pERK1/2 (Thr202/Tyr204), NCI-1H358 (KRAS G12C) (Homo sapiens, UniProt P01116, G12C)
readingQualifier: =
IC50 (nM): 0.5
//
compound: C[C@H](c1cccnc1N)N1c2nc(OC[C@@H]3C[C@@H](F)CN3C)nc3c(F)c(-c4cc(N)cc(Cl)c4C(F)(F)F)nc(c23)OC[C@@H]1C (single isomer, unassigned) [Compound 286]
measuredTarget: pERK1/2 (Thr202/Tyr204), NCI-1H358 (KRAS G12C) (Homo sapiens, UniProt P01116, G12C)
readingQualifier: =
IC50 (nM): 57
//
compound: Cc1cc(N)cc(-c2nc3c4c(nc(OC[C@@]56CCCN5C[C@H](F)C6)nc4c2F)N(C(C)c2cccnc2N)CCO3)c1C(F)(F)F (single isomer, unassigned) [Compound 61]
measuredTarget: pERK1/2 (Thr202/Tyr204), NCI-1H358 (KRAS G12C) (Homo sapiens, UniProt P01116, G12C)
readingQualifier: =
IC50 (nM): 0.2
//
compound: Cc1cc(N)cc(-c2nc3c4c(nc(OCC5CCOCC5)nc4c2F)N([C@@H](C)c2cccnc2N)CCO3)c1C(F)(F)F (single isomer, unassigned) [Compound 118]
measuredTarget: pERK1/2 (Thr202/Tyr204), NCI-1H358 (KRAS G12C) (Homo sapiens, UniProt P01116, G12C)
readingQualifier: >
IC50 (nM): 100
